Collected pIC50 values appear next to each entry.
Target: B. taurus (heart) complex I (Bos taurus, UniProt P03887+P17694+P42026)
Sequence (P03887 whole entry): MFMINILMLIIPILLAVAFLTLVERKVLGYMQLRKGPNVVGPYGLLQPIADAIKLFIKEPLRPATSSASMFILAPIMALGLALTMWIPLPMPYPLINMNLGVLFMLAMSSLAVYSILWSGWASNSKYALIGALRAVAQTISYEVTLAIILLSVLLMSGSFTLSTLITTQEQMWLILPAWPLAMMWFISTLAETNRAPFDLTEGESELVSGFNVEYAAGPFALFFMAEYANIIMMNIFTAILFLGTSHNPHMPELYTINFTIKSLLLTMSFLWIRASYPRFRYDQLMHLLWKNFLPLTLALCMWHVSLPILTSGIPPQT
Sequence (P17694 34-463): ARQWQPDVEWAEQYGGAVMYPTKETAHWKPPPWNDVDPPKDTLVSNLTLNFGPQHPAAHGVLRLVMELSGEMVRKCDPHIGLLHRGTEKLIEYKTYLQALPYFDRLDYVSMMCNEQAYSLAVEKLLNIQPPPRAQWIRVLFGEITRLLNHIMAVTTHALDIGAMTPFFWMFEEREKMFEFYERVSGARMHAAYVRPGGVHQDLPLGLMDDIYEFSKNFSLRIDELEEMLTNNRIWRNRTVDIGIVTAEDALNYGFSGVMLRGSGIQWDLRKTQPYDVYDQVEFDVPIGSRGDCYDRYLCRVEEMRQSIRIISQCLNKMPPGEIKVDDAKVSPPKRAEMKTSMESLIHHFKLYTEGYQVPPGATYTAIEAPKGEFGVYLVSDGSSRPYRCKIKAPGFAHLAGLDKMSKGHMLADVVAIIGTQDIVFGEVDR
Sequence (P42026 38-216): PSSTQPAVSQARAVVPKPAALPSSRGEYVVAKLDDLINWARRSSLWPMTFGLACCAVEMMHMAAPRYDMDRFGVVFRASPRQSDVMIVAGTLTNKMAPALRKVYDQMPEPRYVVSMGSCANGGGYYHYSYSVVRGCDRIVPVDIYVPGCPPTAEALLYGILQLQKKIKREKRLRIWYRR
Experiment: biochemical
Type: biochemical
Details: B. taurus heart mitochondria; estimated from fitted dose-response curves; read-out: B. taurus Complex I IC50
Recall that pIC50 is obtained by taking minus log10 of the concentration measured in molar.

Example entries and their recorded answers appear below.
Cc1ccc(SCCCn2cnc3ccccc32)cc1 :: 5.44
Cc1nc2ccccc2n1Cc1ccc(Cl)c(Cl)c1 :: 5.93
C=CCn1c(-c2ccc(N(C)C)cc2)nc2ccccc21 :: 4.68

GET /value?item= "Nc1nc2ccccc2n1Cc1ccc(Br)cc1" &field=pIC50 returns 5.88

pIC50 measured on "Cc1nc2ccccc2n1Cc1ccc(Br)cc1" = 6.68

The reported value for "Cc1nc2ccccc2n1Cc1ccccc1Cl" in terms of pIC50 is 5.40

pIC50 reported for this molecule Cc1ccc(C(C)C)c(OCC(O)Cn2cnc3ccccc32)c1 (stereo not drawn) : 5.68

Form field pIC50, entry "Cc1nc2ccccc2n1Cc1ccc(Cl)cc1" : 6.52

pIC50 reported for this molecule "Cc1ccc(OCCn2cnc3ccccc32)c(C)c1" : 5.07

Given item "Cc1cccc(OCCn2c(C)nc3ccccc32)c1" , the value recorded as its pIC50 is 5.30

Field pIC50 (entry "Cc1ccc(SCCCCn2cnc3ccccc32)cc1" ) reads 5.14

response.value for "Brc1ccccc1OCCCCn1cnc2ccccc21" (field: pIC50) = 5.94

Cited source: paper PMC11079024
